target: CDK6/cyclinD3 (Homo sapiens, UniProt Q00534); assay: Cyclin-dependent kinase activity assay (continuous ATP coupling assay), CDK6/cyclinD3; conditions: CDK6/cyclinD3 25 nM, ATP 500 μM, Rb copeptide 500 μM, 15 min preincubation, pH 7.5, 1% DMSO
Sequence (Q00534 whole entry): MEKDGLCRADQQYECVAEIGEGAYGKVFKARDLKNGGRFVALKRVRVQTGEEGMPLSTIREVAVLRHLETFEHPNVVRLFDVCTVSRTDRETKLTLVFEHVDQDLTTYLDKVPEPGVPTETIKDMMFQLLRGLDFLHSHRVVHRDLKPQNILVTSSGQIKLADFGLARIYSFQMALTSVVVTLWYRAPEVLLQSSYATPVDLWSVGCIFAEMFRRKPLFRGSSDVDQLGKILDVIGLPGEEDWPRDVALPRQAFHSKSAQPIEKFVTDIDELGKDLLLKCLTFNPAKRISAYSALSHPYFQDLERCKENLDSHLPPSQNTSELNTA
Sequence (P30281 whole entry partner): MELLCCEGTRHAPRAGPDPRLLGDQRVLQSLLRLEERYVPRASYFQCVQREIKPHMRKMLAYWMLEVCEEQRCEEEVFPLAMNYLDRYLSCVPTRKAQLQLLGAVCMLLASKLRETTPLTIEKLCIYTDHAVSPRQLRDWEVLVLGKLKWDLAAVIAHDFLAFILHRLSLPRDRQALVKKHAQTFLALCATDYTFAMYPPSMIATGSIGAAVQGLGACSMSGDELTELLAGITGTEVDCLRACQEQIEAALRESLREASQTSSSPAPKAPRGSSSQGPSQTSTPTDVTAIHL
pIC50: −log10 of the molar value.
outcome_measure: pIC50

What value of pIC50 has been recorded for this entry: CC(C)(O)Cc1cnn(-c2nc(N[C@H]3CCOC[C@@H]3O)ncc2C(F)(F)F)c1 (single isomer, unassigned)
≤ 7.00

What value of pIC50 has been recorded for this entry: CNS(=O)(=O)c1ccc(Nc2ncc(C(F)(F)F)c(-n3cc(C4CCN(C(C)C)CC4)cn3)n2)cc1
≤ 7.00

What value of pIC50 has been recorded for this entry: CNS(=O)(=O)c1ccc(Nc2ncc(C(F)(F)F)c(-n3cc([C@@H]4CCC[C@@H]4O)cn3)n2)cc1 (single isomer, unassigned)
≤ 7.00

What value of pIC50 has been recorded for this entry: CNS(=O)(=O)c1ccc(Nc2ncc(C(F)(F)F)c(-n3cc(CN4CCNCC4)cn3)n2)cc1
≤ 7.00

What value of pIC50 has been recorded for this entry: CNS(=O)(=O)c1ccc(Nc2ncc(C(F)(F)F)c(-n3cc(C4CCNC4)cn3)n2)cc1 (single isomer, unassigned)
≤ 7.00

What value of pIC50 has been recorded for this entry: CNS(=O)(=O)c1ccc(Nc2ncc(C(F)(F)F)c(-n3cc([C@@H]4CC[C@@H](O)C4)cn3)n2)cc1 (single isomer, unassigned)
7.00 to 8.00

What value of pIC50 has been recorded for this entry: CC(C)(O)Cc1cnn(-c2nc(Nc3ccc(S(N)(=O)=O)cc3)ncc2C(F)(F)F)c1
7.00 to 8.00

What value of pIC50 has been recorded for this entry: CNS(=O)(=O)c1ccc(Nc2ncc(C(F)(F)F)c(-n3cc(C4=CCCC4)cn3)n2)cc1
≤ 7.00

What value of pIC50 has been recorded for this entry: CNS(=O)(=O)c1ccc(Nc2ncc(C(F)(F)F)c(-n3cccn3)n2)c(F)c1
≤ 7.00

What value of pIC50 has been recorded for this entry: CNS(=O)(=O)c1ccc(Nc2ncc(C(F)(F)F)c(-n3cc(C4CCC4)cn3)n2)cc1
≤ 7.00

What value of pIC50 has been recorded for this entry: CNS(=O)(=O)c1ccc(Nc2ncc(C(F)(F)F)c(-n3cc(N4CC(O)C4)cn3)n2)cc1
≤ 7.00

What value of pIC50 has been recorded for this entry: [2H]C([2H])([2H])NS(=O)(=O)c1ccc(Nc2ncc(C(F)(F)F)c(-n3ccc(C(F)(F)F)n3)n2)cc1
≤ 7.00

What value of pIC50 has been recorded for this entry: CC(C)(CO)NS(=O)(=O)c1ccc(Nc2ncc(C(F)(F)F)c(-n3cccn3)n2)cc1
≤ 7.00

What value of pIC50 has been recorded for this entry: CCS(=O)(=O)N1C2CCC1CC(Nc1ncc(C(F)(F)F)c(-n3cccn3)n1)C2 (stereo not drawn)
≤ 7.00

What value of pIC50 has been recorded for this entry: CNS(=O)(=O)c1ccc(Nc2ncc(C(F)(F)F)c(-n3cc(C4CCCC4)cn3)n2)cc1
7.00 to 8.00

----------
molecular target: CDK2/cyclinE1 (Homo sapiens); test: Cyclin-dependent kinase activity assay (continuous ATP coupling assay), CDK2/cyclinE1; details: CDK2/cyclinE1 5 nM, ATP 300 μM, Rb copeptide 100 μM, 15 min preincubation, pH 7.5, 1% DMSO
outcome_measure: IC50

What value of IC50 has been recorded for this entry: CNS(=O)(=O)c1ccc(Nc2ncc(C(F)(F)F)c(-n3cc([C@H]4CCC[C@H]4O)cn3)n2)cc1 (single isomer, unassigned) [Example 77]
10 to 100 nM

What value of IC50 has been recorded for this entry: CNS(=O)(=O)c1ccc(Nc2ncc(C(F)F)c(-n3cc(CC(C)(C)O)cn3)n2)cc1 [Example 66]
10 to 100 nM

What value of IC50 has been recorded for this entry: NS(=O)(=O)c1ccc(Nc2ncc(C(F)(F)F)c(-n3cccn3)n2)c(F)c1 [Example 28]
10 to 100 nM

What value of IC50 has been recorded for this entry: O=S(=O)(NC1CC1)c1ccc(Nc2ncc(C(F)(F)F)c(-n3cccn3)n2)cc1 [Example 30]
10 to 100 nM

What value of IC50 has been recorded for this entry: CNS(=O)(=O)c1ccc(Nc2ncc(C(F)(F)F)c(-n3cc(CC(C)(C)O)cn3)n2)cc1 [Example 2]
≤ 10 nM

What value of IC50 has been recorded for this entry: CNS(=O)(=O)c1ccc(Nc2ncc(C(F)(F)F)c(-n3ccc(C4CC4)n3)n2)cc1 [Example 56]
≥ 100 nM

What value of IC50 has been recorded for this entry: Cc1cc(S(=O)(=O)NCCO)ccc1Nc1ncc(C(F)(F)F)c(-n2cccn2)n1 [Example 126]
≤ 10 nM

What value of IC50 has been recorded for this entry: CNS(=O)(=O)c1ccc(Nc2ncc(F)c(-n3cccn3)n2)cc1 [Example 21]
10 to 100 nM

What value of IC50 has been recorded for this entry: CC(C)(O)c1cnn(-c2nc(NC3CCN(S(C)(=O)=O)CC3)ncc2F)c1 [Example 1]
10 to 100 nM

What value of IC50 has been recorded for this entry: O=S(=O)(NCCCO)c1ccc(Nc2ncc(C(F)(F)F)c(-n3cccn3)n2)cc1 [Example 112]
≤ 10 nM

What value of IC50 has been recorded for this entry: O=S(=O)(NCCOC1CC1)c1ccc(Nc2ncc(C(F)(F)F)c(-n3cccn3)n2)cc1 [Example 129]
≥ 100 nM

What value of IC50 has been recorded for this entry: O=S(=O)(NCCO)c1ccc(Nc2ncc(C(F)(F)F)c(-n3cccn3)n2)c(F)c1 [Example 124]
≤ 10 nM

What value of IC50 has been recorded for this entry: CNS(=O)(=O)c1ccc(Nc2ncc(C(F)(F)F)c(-n3cc(Br)cn3)n2)cc1 [Example 44]
10 to 100 nM

What value of IC50 has been recorded for this entry: CNS(=O)(=O)c1ccc(Nc2ncc(C(F)(F)F)c(-n3cc(CC(C)(C)N)cn3)n2)cc1 [Example 72]
≤ 10 nM

What value of IC50 has been recorded for this entry: CC1(Nc2ncc(C(F)(F)F)c(-n3cccn3)n2)CCN(S(C)(=O)=O)CC1 [Example 29]
≥ 100 nM

What value of IC50 has been recorded for this entry: CNS(=O)(=O)c1ccc(Nc2ncc(C(F)(F)F)c(-n3cc([C@@H]4CC[C@@H](O)C4)cn3)n2)cc1 (single isomer, unassigned) [Example 78]
≤ 10 nM

----------
Give pIC50 for every item shown.
biological target: CDK1/cyclinB1 (Homo sapiens); test: Cyclin-dependent kinase activity assay (continuous ATP coupling assay), CDK1/cyclinB1; conditions: CDK1/cyclinB1 10 nM, ATP 200 μM, Histone1 copeptide 100 μM, 15 min preincubation, pH 7.5, 1% DMSO
Sequence (P06493 whole entry): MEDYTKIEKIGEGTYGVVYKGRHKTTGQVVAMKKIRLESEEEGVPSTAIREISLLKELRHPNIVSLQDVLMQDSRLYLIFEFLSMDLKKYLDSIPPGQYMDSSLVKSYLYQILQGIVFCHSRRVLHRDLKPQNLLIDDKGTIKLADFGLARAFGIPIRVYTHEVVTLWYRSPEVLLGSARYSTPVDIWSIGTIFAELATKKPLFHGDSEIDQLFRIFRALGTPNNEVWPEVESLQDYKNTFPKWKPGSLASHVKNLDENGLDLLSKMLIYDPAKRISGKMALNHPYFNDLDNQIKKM
Sequence (P14635 whole entry partner): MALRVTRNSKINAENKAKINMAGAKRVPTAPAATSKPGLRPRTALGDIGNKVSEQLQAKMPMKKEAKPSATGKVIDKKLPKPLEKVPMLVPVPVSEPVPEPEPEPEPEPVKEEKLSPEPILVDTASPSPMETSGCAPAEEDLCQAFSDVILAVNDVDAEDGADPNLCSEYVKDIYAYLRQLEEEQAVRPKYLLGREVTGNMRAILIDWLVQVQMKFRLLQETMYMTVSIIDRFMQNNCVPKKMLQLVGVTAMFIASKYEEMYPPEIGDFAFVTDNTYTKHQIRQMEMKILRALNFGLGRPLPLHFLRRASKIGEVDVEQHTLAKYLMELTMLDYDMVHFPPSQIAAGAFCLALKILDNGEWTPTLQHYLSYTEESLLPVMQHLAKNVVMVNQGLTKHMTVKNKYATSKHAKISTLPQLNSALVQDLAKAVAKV
pIC50: −log10 of the molar value.

What value of pIC50 has been recorded for this entry: CC(C)(O)Cc1cnn(-c2nc(N[C@H]3CCOC[C@@H]3O)ncc2C(F)(F)F)c1 (single isomer, unassigned)
≤ 7.00

What value of pIC50 has been recorded for this entry: CS(=O)(=O)Nc1cccc(Nc2ncc(C(F)(F)F)c(-n3cccn3)n2)c1
≤ 7.00

What value of pIC50 has been recorded for this entry: CNS(=O)(=O)c1ccc(Nc2ncc(C(F)(F)F)c(-n3cc(C4CC4)cn3)n2)cc1
≤ 7.00

What value of pIC50 has been recorded for this entry: CNS(=O)(=O)c1ccc(Nc2ncc(C(F)(F)F)c(-n3cc([C@@H]4CCC[C@H]4O)cn3)n2)cc1 (single isomer, unassigned)
≤ 7.00

What value of pIC50 has been recorded for this entry: CC(C)(O)CNS(=O)(=O)c1ccc(Nc2ncc(C(F)(F)F)c(-n3cccn3)n2)cc1
≤ 7.00

What value of pIC50 has been recorded for this entry: CNS(=O)(=O)c1ccc(Nc2ncc(C(F)(F)F)c(-n3cc(C4=CCCC4)cn3)n2)cc1
≤ 7.00

What value of pIC50 has been recorded for this entry: O=S(=O)(NC1(CO)CC1)c1ccc(Nc2ncc(C(F)(F)F)c(-n3cccn3)n2)cc1
≤ 7.00

What value of pIC50 has been recorded for this entry: CNS(=O)(=O)c1ccc(Nc2ncc(C(F)(F)F)c(-n3cc(CC(C)(C)O)c(C)n3)n2)cc1
≤ 7.00

What value of pIC50 has been recorded for this entry: CNS(=O)(=O)c1ccc(Nc2ncc(C)c(-n3cccn3)n2)cc1
≤ 7.00

What value of pIC50 has been recorded for this entry: O=S(=O)(NCCO)c1ccc(Nc2nccc(-n3cccn3)n2)cc1
≤ 7.00

What value of pIC50 has been recorded for this entry: Cc1cc(S(=O)(=O)NCCO)ccc1Nc1ncc(C(F)(F)F)c(-n2cccn2)n1
≤ 7.00

What value of pIC50 has been recorded for this entry: CNS(=O)(=O)c1ccc(Nc2ncc(F)c(-n3cc(CC(C)(C)O)cn3)n2)cc1
≤ 7.00

What value of pIC50 has been recorded for this entry: CNS(=O)(=O)c1ccc(Nc2ncc(C(F)(F)F)c(-n3cccn3)n2)cc1
≤ 7.00

What value of pIC50 has been recorded for this entry: CNS(=O)(=O)c1ccc(Nc2ncc(C(F)(F)F)c(-n3cc(Br)cn3)n2)cc1
≤ 7.00

What value of pIC50 has been recorded for this entry: O=S(=O)(NCCOC(F)(F)F)c1ccc(Nc2ncc(C(F)(F)F)c(-n3cccn3)n2)cc1
≤ 7.00
